Data provenance is ChEMBL document CHEMBL5291721.

AC50 values recorded for Vasopressin V1a receptor (Homo sapiens)

- molecule: "CNCC[C@@H](Oc1ccccc1C)c1ccccc1"
  AC50: "> 30 µM"
- molecule: "OCCN1CCN(CC/C=C2/c3ccccc3Sc3ccc(Cl)cc32)CC1"
  AC50: "> 10 µM"
- molecule: "CC1(C)O[C@@H]2[C@@H](CO[C@@]3(COS(N)(=O)=O)OC(C)(C)O[C@@H]23)O1 [TOPIRAMATE]"
  AC50: "> 10 µM"
- molecule: "CCN(CC)CC(=O)Oc1ccc(NC(C)=O)cc1"
  AC50: "> 30 µM"
- molecule: "C=C[C@@]1(C)CC(=O)[C@]2(O)[C@@]3(C)[C@@H](O)CCC(C)(C)[C@@H]3[C@H](OC(=O)CCN(C)C)[C@H](OC(C)=O)[C@@]2(C)O1"
  AC50: "> 30 µM"
- molecule: "O=C(Nc1nc(-c2cc(Cl)cs2)c(N2CCN(C3CCCCC3)CC2)s1)c1cnc(N2CCC(C(=O)O)CC2)c(Cl)c1"
  AC50: "> 10 µM"
- molecule: "C[C@@H]1CCC[C@H](C)N1NC(=O)c1ccc(Cl)c(S(N)(=O)=O)c1 [CLOPAMIDE]"
  AC50: "> 30 µM"
- molecule: "CCC(C)(Oc1ccc(C2(c3ccc(OC(C)(CC)C(=O)O)cc3)CCCCC2)cc1)C(=O)O (stereo not drawn) [CLINOFIBRATE]"
  AC50: "> 30 µM"
